- Test system: HCC1569;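 also: TDF denotes transformed human dermal fibroblasts of mesenchymal origin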
- Test name: cell number relative to DMSO (% of DMSO); higher = more cells (less growth inhibition / toxicity)
- Applied conditions: concentration: 10 µM; 24 h
Observed property: cell number

Cl.O=C(O)C1=CCCN(CCON=C(c2ccccc2)c2ccccc2)C1 [NO-711 hydrochloride] | 100
CCOC(=O)C1=C(C)NC(C)=C(C(=O)OCC)C1c1ccccc1C=CC(=O)OC(C)(C)C | 93.2
CCCCCCCCCCCCCC(=O)NC(C)C(O)c1ccccc1 [D-erythro MAPP] | 104
CCN(CC)CCOCCOC(=O)C1(c2ccccc2)CCCC1.O=C(O)CC(O)(CC(=O)O)C(=O)O [Carbetapentane citrate] | 86.4
CC(=O)OC1CC2(C)C(CC(O)C3C4(C)CCC(O)C(C)C4CCC32C)C1=C(CCC=C(C)C)C(=O)[O-].[Na+] (centres undefined) [Fusidic acid sodium] | 105
O=C1NC(=O)c2c1c(-c1ccccc1)cc1[nH]c3ccc(O)cc3c21 | 59.9
Cl.c1ccc(CN2CCC3(CCCc4ccccc43)CC2)cc1 [L-687,384 hydrochloride] | 103
CC(CC(c1ccccc1)c1ccccc1)NC(C)(C)C.Cl (centres undefined) [N-(tert-butyl)-4,4-diphenyl-2-butanamine hydrochloride] | 97.9
O=C1CCc2c(ccc3ccccc23)O1 [1,2-dihydro-3H-benzo[f]chromen-3-one] | 103
COc1ccccc1OCC(O)CN1CCN(CC(=O)Nc2c(C)cccc2C)CC1.Cl.Cl (centres undefined) [Ranolazine dihydrochloride] | 104
CC1CNc2c(cccc2S(=O)(=O)N[C@@H](CCCN=C(N)N)C(=O)N2CC[C@@H](C)C[C@@H]2C(=O)O)C1.O (some centres undefined) | 102
CCC(C)C(=O)OC1CC(C)C=C2C=CC(C)C(CCC3CC(O)CC(=O)O3)C21 (centres undefined) | 99.4
CNc1cc2c(Nc3cccc(Br)c3)ncnc2cn1 | 87.2
CC(C)OC(=O)CCCC=CCC1C(O)CC(O)C1CCC(O)CCc1ccccc1 (centres undefined) | 103
COc1ccc2c(c1)c(CC(=O)O)c(C)n2Cc1ccc(F)cc1 | 101
O=c1c2ccccc2nc2n1CCc1c-2[nH]c2ccccc12 | 102
CCCCCCCC/C=C\CCCCCCCC(=O)NCc1ccc(O)c(OC)c1 [(9Z)-N-(4-hydroxy-3-methoxybenzyl)-9-octadecenamide] | 40.4
OC1(c2ccc(Cl)cc2)CCN(Cc2c[nH]c3ccccc23)CC1 | 94.6
CC(=O)OCC1=C(C(=O)[O-])N2C(=O)C(NC(=O)CSc3ccncc3)C2SC1.[Na+] (centres undefined) [Cephapirin sodium] | 101
CCCCC(=O)O[C@]1(C(=O)CO)[C@@H](C)C[C@H]2[C@@H]3CCC4=CC(=O)C=C[C@]4(C)[C@@]3(F)[C@@H](O)C[C@@]21C | 96.4
c1ccc(-c2ccccn2)nc1 | 107
CCN(CC)CCNC(=O)c1cc(Cl)c(N)cc1OC [Metoclopramide] | 102
NC(N)=NN=Cc1c(Cl)cccc1Cl | 98.5
O=C(C1CCCCC1)N1CC(=O)N2CCc3ccccc3C2C1 (centres undefined) | 101
c1ccc2c(CC3=NCCN3)cccc2c1 | 99.4
COc1ccc2cc(CCC(C)=O)ccc2c1 | 107
COc1cc2c(cc1OC)CC(=O)N(CCCN(C)C[C@H]1Cc3cc(OC)c(OC)cc31)CC2.Cl | 100
CN(C)CC(=O)Nc1ccc2[nH]c(=O)c3ccccc3c2c1.Cl.O | 101
O=c1ncnc2[nH][nH]cc1-2 | 103
CC(C)NCC(O)COc1ccc(CC(N)=O)cc1 (stereo not drawn) [R(+)-Atenolol] | 98.9
Cc1nc2cc3nc(-c4cccs4)cnc3cc2n1C | 106
CC(C)CNCc1ccc(-c2ccccc2S(=O)(=O)N2CCCC2)cc1.Cl | 96
CC12CCC3c4ccc(O)cc4CCC3C1CCC2O (stereo not drawn) [beta-Estradiol] | 90.6
CS(=O)(=O)c1ccc(C(O)C(COC(=O)CN)NC(=O)C(Cl)Cl)cc1 (centres undefined) [Thiamphenicol glycinate] | 105
